Taken from ChEMBL document CHEMBL1121631.

Test system: Dihydrofolate reductase (Enterococcus faecium)
Outcome: fulfilled for Delta G of at least -10 kcal; not fulfilled for anything lower.

INSERT INTO measurements (compound, assigned_class) VALUES
  ('Nc1nc(N)c2cc(S(=O)(=O)c3ccc(Cl)c(Cl)c3)ccc2n1', 'not fulfilled'),
  ('Nc1nc(N)c2c(CSc3ccc(Cl)cc3)cccc2n1', 'not fulfilled'),
  ('Nc1nc(S)c2cc(S(=O)(=O)c3ccc4ccccc4c3)ccc2n1', 'fulfilled'),
  ('Nc1nc(O)c2cc(NCc3ccc(C(=O)O)cc3)ccc2n1', 'fulfilled'),
  ('Nc1nc(N)c2c(CCc3ccc4ccccc4c3)cccc2n1', 'not fulfilled'),
  ('Nc1nc(O)c2cc(S(=O)(=O)c3ccc4ccccc4c3)ccc2n1', 'fulfilled'),
  ('Sc1nc(S)c2cc(Sc3ccc4ccccc4c3)ccc2n1', 'fulfilled'),
  ('Nc1nc(N)c2c(/C=C\c3ccc4ccccc4c3)cccc2n1', 'not fulfilled'),
  ('Nc1nc(N)c2cc(Sc3ccc(Cl)c(Cl)c3)ccc2n1', 'not fulfilled'),
  ('Nc1nc(N)c2c([S+]([O-])c3ccc(Cl)c(Cl)c3)cccc2n1 (centres undefined)', 'fulfilled'),
  ('Nc1nc(O)nc2ccc(Sc3ccc4ccccc4c3)cc12', 'fulfilled'),
  ('Nc1ncnc2ccc(Sc3ccc4ccccc4c3)cc12', 'fulfilled'),
  ('Nc1nc(O)c2cc([S+]([O-])c3ccc4ccccc4c3)ccc2n1 (centres undefined)', 'fulfilled'),
  ('Nc1nc(N)c2c(/C=C/c3ccc4ccccc4c3)cccc2n1', 'not fulfilled'),
  ('Nc1nc(O)c2cc(CNc3ccc(C(=O)O)cc3)ccc2n1', 'fulfilled'),
  ('CCOC(=O)c1ccc(CNc2ccc3nc(N)nc(N)c3c2Cl)cc1', 'not fulfilled'),
  ('Nc1nc(N)c2cc([S+]([O-])c3ccc4ccccc4c3)ccc2n1 (centres undefined)', 'not fulfilled'),
  ('Nc1nc(O)c2cc(Sc3ccc(Cl)c(Cl)c3)ccc2n1', 'fulfilled'),
  ('O=c1[nH]c(=S)c2cc(Sc3ccc4ccccc4c3)ccc2[nH]1', 'fulfilled'),
  ('CCOC(=O)c1ccc(NCc2ccc3nc(N)nc(O)c3c2)cc1', 'not fulfilled'),
  ('Nc1nc(O)c2cc(S(=O)(=O)c3ccc(Cl)c(Cl)c3)ccc2n1', 'fulfilled'),
  ('Nc1ncnc2ccc(S(=O)(=O)c3ccc4ccccc4c3)cc12', 'fulfilled'),
  ('CCCCOC(=O)c1ccc(NCc2ccc3nc(N)nc(N)c3c2)cc1', 'not fulfilled');
